Listing: growth inhibition of selected compounds
- measurement protocol: NCI Yeast Anticancer Drug Screen. Data for the rad50 strain (AID 155);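 further: 0% = growth of vehicle-only cultures of the same strain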
- protocol conditions: S. cerevisiae rad50 strain growth inhibition; at 50.0 µM; active compounds read high
This is part of a sample that, as a whole, favours compounds with a hit. Of some 79,000 tested, about 15% had one in any assay.
# value in %; strip the unit string

Worked examples follow.
INSERT INTO assay_data (compound, metric_name, recorded_measurement) VALUES
  ('CCC1CCCC(=O)C1 (stereo not given)', 'growth inhibition', 89.2),
  ('Nc1cc2ccc(O)cc2c2ccccc12', 'growth inhibition', 94.8),
  ('Clc1ccc(CN2CCCN(Cc3ccc(Cl)cc3)C2c2cc3ccccc3c3ccccc23)cc1', 'growth inhibition', 70),
  ('CC(NC(=O)C(N)Cc1ccccc1)C(=O)NC1C(CO)OC(n2cnc3c(N)ncnc32)C1O (stereo not given)', 'growth inhibition', 32.2);

[in] For the compound shown here, CCC(C)c1ccc(O)c(C(C)CC)c1 (stereo not given) , give the reported growth inhibition.
[out] 58.9

[in] Quick one: growth inhibition for `COc1cc2c(c3c1/c(=N/N(C)C)c1ccccc1n3C)C=CC(C)(C)O2` ?
[out] 69.3

[in] For `O[Si](c1ccccc1)(c1ccccc1)c1ccccc1.O[Si](c1ccccc1)(c1ccccc1)c1ccccc1.O[Si](c1ccccc1)(c1ccccc1)c1ccccc1.[O]=[V]` , what is its reported growth inhibition?
[out] 62.1

[in] Which value of growth inhibition has been reported for `CCN(CC)c1ccc(C(=C2C=CC(=[N+](CC)CC)C=C2)c2ccc(N(CC)CC)cc2)cc1` in the records?
[out] 67.5

[in] Give its growth inhibition value. Item: CCCCCCCCCCCCCCCCOP(=O)(O)OCC(NC(C)=O)C(=O)O (stereo not given)
[out] 99.2

[in] Sample `O=C(NO)c1cccnc1` — what was its growth inhibition?
[out] 66.3

Provenance of the data: PubChem BioAssay (NCI)
